experiment: physchem; settings: koh in 95% ethanol, organic solvent or mixture
EXPERIMENTAL ENDPOINT: solubility

Asked: Would you kindly share the measured solubility for c1ccc(CNc2ncnc3nc[nH]c23)cc1 [N^6 BA] ?
Given back: ~540 mg/mL

----------
assay: physchem; details: aqueous koh 2.875 n
EXPERIMENTAL ENDPOINT: solubility

Asked: Would you kindly share the measured solubility for `c1ccc(CNc2ncnc3nc[nH]c23)cc1` ?
Given back: ~455 mg/mL

----------
assay: physchem; conditions: water koh 0.0025 n
EXPERIMENTAL ENDPOINT: solubility (µg/mL)
Express the result in µg/mL but write the number alone.

Asked: Would you kindly share the measured solubility for c1ccc(CNc2ncnc3nc[nH]c23)cc1 [N^6 BA] ?
Given back: 62
